The measurements presented in this section are drawn from paper PMC9403976.

- measured.target: HT-HsProRS (Homo sapiens, UniProt P07814)
- Sequence (P07814 996-1512): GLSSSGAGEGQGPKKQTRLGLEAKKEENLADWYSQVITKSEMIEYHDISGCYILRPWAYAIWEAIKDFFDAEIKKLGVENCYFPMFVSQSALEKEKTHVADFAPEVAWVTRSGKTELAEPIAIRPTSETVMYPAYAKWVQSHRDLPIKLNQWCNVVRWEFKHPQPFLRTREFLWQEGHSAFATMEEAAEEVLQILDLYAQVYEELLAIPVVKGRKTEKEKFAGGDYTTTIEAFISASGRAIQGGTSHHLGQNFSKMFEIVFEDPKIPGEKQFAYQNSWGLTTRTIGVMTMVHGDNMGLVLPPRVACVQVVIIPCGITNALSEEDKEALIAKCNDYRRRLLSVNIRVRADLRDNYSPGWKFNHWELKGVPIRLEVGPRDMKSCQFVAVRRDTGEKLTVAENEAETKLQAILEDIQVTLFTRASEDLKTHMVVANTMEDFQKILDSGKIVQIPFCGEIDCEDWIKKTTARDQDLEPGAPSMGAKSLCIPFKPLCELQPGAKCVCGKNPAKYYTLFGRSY
- experiment: biochemical
- condition.label: HsProRS (KD [nM]) mean, substrates, substrate KD; (-)
endpoint: Kd (nM)
Numbers only, in nM.

(Q) Quick one: Kd for Nc1ncnc2c1ncn2[C@@H]1O[C@H](COP(=O)(O)OP(=O)(O)OP(=O)(O)O)[C@@H](O)[C@H]1O ?
(A) 67100

Turning to the following compound.
(Q) So what does the record say about Kd for O=C(O)[C@@H]1CCCN1 ?
(A) 30600

====

- measured.target: PfcProRS (Plasmodium falciparum, UniProt Q8I5R7)
- Construct: made in house; host or cells: E. coli SoluBL-21
- Sequence (Q8I5R7 249-746): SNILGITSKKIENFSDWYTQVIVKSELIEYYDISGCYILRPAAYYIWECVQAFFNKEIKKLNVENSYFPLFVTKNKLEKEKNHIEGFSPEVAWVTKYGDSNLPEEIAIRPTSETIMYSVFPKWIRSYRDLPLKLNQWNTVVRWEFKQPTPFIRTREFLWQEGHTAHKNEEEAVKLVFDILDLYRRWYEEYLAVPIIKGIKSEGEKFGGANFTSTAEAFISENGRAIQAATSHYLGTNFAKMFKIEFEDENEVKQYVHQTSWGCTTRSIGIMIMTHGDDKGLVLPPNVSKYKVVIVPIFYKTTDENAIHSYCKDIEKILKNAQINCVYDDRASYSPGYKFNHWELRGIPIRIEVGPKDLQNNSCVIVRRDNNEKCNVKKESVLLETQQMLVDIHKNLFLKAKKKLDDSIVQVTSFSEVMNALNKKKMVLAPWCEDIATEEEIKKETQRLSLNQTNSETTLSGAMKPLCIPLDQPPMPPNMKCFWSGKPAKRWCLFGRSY
- Format: binding
- condition.label: SI Fig 16a; values on -log scale
Record form. Attribute: PfcProRS -- best Kd. Fill in for each entry.
Give bare numbers.

Look over these answered cases.
(Q) What value of PfcProRS -- best Kd has been recorded for this entry: O=C(NC1Cc2ccccc2C1)c1nccnc1NC(=O)C1CCOCC1
(A) 5.799

(Q) Find the recorded PfcProRS -- best Kd belonging to NC1(C(=O)Nc2nccnc2C(=O)NC2Cc3ccccc3C2)CCCCC1 and report it.
(A) 6.883

(Q) Return reported PfcProRS -- best Kd; argument: CC(C)(C)OC(=O)NCC1CCN(C(=O)Nc2nccnc2C(=O)NC2Cc3ccccc3C2)CC1
(A) 6.452

Okay, here is my list. What is PfcProRS -- best Kd for each of these?
1. NCCCCCC(=O)NC1CCN(C(=O)Nc2nccnc2C(=O)NC2Cc3ccccc3C2)CC1
2. CC(C)(C)OC(=O)N1CCC[C@H]1C(=O)NCC1CCN(C(=O)Nc2nccnc2C(=O)NC2Cc3ccccc3C2)CC1
3. O=C(NC1Cc2ccccc2C1)c1nccnc1NC(=O)C1CCCCC1 [compound 2, reference compound]

(A)
1: 6.530; 2: 8.272; 3: 8.144

Okay, here is my list. What is PfcProRS -- best Kd for each of these?
1. O=C(NC1Cc2ccccc2C1)c1nccnc1NC(=O)N1CCC(NC(=O)[C@@H]2CCCN2)CC1
2. CC(C)(C)OC(=O)N[C@H]1CC[C@@H](C(=O)Nc2nccnc2C(=O)NC2Cc3ccccc3C2)CC1

(A)
[6.180, 7.580]

====

For each record, write down the corresponding Kd.
- measured.target: HsProRS (Homo sapiens)
- experiment: TR-FRET ligand displacement assay with tracer MAT379 (CoraFluor-1-Halo and anti-His6 antibody formats)
- Type: binding
- Parameters: made in house; host or cells: E. coli SoluBL-21
- condition.label: HsProRS (KD [nM]) + proline, 100 μM proline; 250 nM MAT379
One number for each entry, in nM.

(Q) What does the data say about its Kd? Entry: O=C(NC1Cc2ccccc2C1)c1nccnc1NC(=O)N1CCC(CNC(=O)[C@@H]2CCCN2)CC1 [MAT345]
(A) 282

Hi! Can you tell me Kd for each of these compounds?
1. CC(C)(C)OC(=O)NC1CCN(C(=O)Nc2nccnc2C(=O)NC2Cc3ccccc3C2)CC1 [compound 7]
2. CC(C)(C)OC(=O)N1CCC[C@H]1C(=O)NCC1CCN(C(=O)Nc2nccnc2C(=O)NC2Cc3ccccc3C2)CC1 [compound 32]
3. O=C(NC1Cc2ccccc2C1)c1nccnc1NC(=O)N1CCC(NC(=O)[C@@H]2CCCN2)CC1 [MAT334]
4. CC(C)(C)OC(=O)N[C@H]1CC[C@@H](C(=O)Nc2nccnc2C(=O)NC2Cc3ccccc3C2)CC1 [compound 6]

(A)
1: 34.8; 2: 270; 3: 2130; 4: 82.7

====

- System: P. falciparum Dd2-2D4
- experiment: P. falciparum asexual blood stage (ABS) growth assay, SYBR Green, 72 h, wild-type parasites
- Assay type: cell-based, Plasmodium falciparum
- condition.label: Plasmodium falciparum, DD2; SI Fig 16b; values on -log scale; read-out: ABS - Dd2-2D4 (converted)
endpoint: EC50
Kindly format the answer as number then unit.

Completed entries (count: 3):
(Q) Would you mind telling me what EC50 value was observed for CC(C)(C)OC(=O)N1CCC[C@H]1C(=O)NCC1CCN(C(=O)Nc2nccnc2C(=O)NC2Cc3ccccc3C2)CC1 ?
(A) 0.0632 µM

(Q) Bench note: what EC50 did CNc1nccnc1C(=O)NC1Cc2ccccc2C1 show?
(A) 8.11 µM

(Q) What EC50 value was documented for this compound, CC(C)(C)OC(=O)NC1(C(=O)Nc2nccnc2C(=O)NC2Cc3ccccc3C2)CCCCC1 ?
(A) 6.11 µM

We now examine a further compound.
(Q) // returns reported EC50 for input Nc1ncnc2c1ncn2[C@@H]1O[C@H](COS(=O)(=O)NC(=O)[C@H]2CCCN2)[C@@H](O)[C@H]1O [D-ProSA, reference compound]
(A) 2.55 µM

====

Would you mind telling me the reported EC50 of each entry?
- Test system: halofuginone-induced P. falciparum (elevated proline homeostasis)
- experiment: P. falciparum ABS growth assay, SYBR Green, 72 h, halofuginone-induced parasites
- Assay type: cell-based, Plasmodium falciparum
- condition.label: Plasmodium falciparum, DD2; read-out: Dd2 (EC50 [nM]) halofuginone-induced mean
Give bare numbers, in nM.

(Q) Which EC50 reading was recorded for the molecule Nc1ncnc2c1ncn2[C@@H]1O[C@H](COS(=O)(=O)NC(=O)[C@H]2CCCN2)[C@@H](O)[C@H]1O [D-ProSA, reference compound] ?
(A) 2730

More entries:
(Q) Fill blank: measured EC50 of the molecule O=C(NC1Cc2ccccc2C1)c1nccnc1NC(=O)N1CCC(CO)CC1 [compound 11] is ____.
(A) 2470

====

- measured.target: UniProt P07814
- experiment: TR-FRET ligand displacement assay with tracer MAT379 (CoraFluor-1-Halo and anti-His6 antibody formats)
- Format: binding
- Set-up: made in house; host or cells: E. coli SoluBL-21
- condition.label: HsProRS (KD [nM]) + 100 μM proline mean, + 100 μM proline
What Kd was measured for each of the following?
Give bare numbers, in nM.

Please review the entries below; each comes with its answer.
(Q) May I ask what Kd has been recorded for NCC1CCN(C(=O)Nc2nccnc2C(=O)NC2Cc3ccccc3C2)CC1 ?
(A) 1360

(Q) Any idea what its Kd is? The molecule is C[C@@H]1CCC[C@H](C)N1C(=O)Nc1nccnc1C(=O)NC1Cc2ccccc2C1
(A) 1320

(Q) Look up Kd for this molecule: O=c1[nH]c2nccnc2c(=O)n1C1Cc2ccccc2C1
(A) 2650

(Q) Quick one: Kd of O=C(NC1Cc2ccccc2C1)c1nccnc1NC(=O)N1CCC(CO)CC1 ?
(A) 8.42

(Q) Consider the molecule shown here: CC(C)(C)OC(=O)NCCCCCC(=O)NCC1CCN(C(=O)Nc2nccnc2C(=O)NC2Cc3ccccc3C2)CC1 What is its recorded Kd?
(A) 2280

// each molecule listed below needs its Kd
1. CC(C)(C)OC(=O)NCCCCCC(=O)NC1CCN(C(=O)Nc2nccnc2C(=O)NC2Cc3ccccc3C2)CC1
2. CC(C)N(C(=O)Nc1nccnc1C(=O)NC1Cc2ccccc2C1)C(C)C
3. NCCCCCC(=O)NC1CCN(C(=O)Nc2nccnc2C(=O)NC2Cc3ccccc3C2)CC1

(A)
1: 561; 2: 1020; 3: 780

====

- measured.target: HsProRS (Homo sapiens, UniProt P07814)
- experiment: TR-FRET ligand displacement assay with tracer MAT379 (CoraFluor-1-Halo and anti-His6 antibody formats)
- Type: binding
- Set-up: made in house; host or cells: E. coli SoluBL-21
- condition.label: HsProRS (KD [nM]) mean, no added proline/ATP (-)
Please provide measured Kd for the entries that follow.
Answers are plain numbers, in nM.

The cases that follow already have their Kd on record.
(Q) Please report the recorded Kd for O=C(NC1Cc2ccccc2C1)c1nccnc1NC(=O)C1(O)CCCCC1 [compound 15] .
(A) 2700

(Q) Looking for the measured Kd of O=C(NC1Cc2ccccc2C1)c1nccnc1NC(=O)C1CCOCC1 [compound 18] , can you help?
(A) 7400

(Q) Could you tell me which Kd is on file for O=C(NC1Cc2ccccc2C1)c1nccnc1NC(=O)N1CCC(CCO)CC1 [compound 12] ?
(A) 687

(Q) Fill in the blank: the reported Kd of NC1(C(=O)Nc2nccnc2C(=O)NC2Cc3ccccc3C2)CCCCC1 [compound 17] is ____.
(A) 4430

(Q) Fill in the blank: the reported Kd of NCCCCCC(=O)NCC1CCN(C(=O)Nc2nccnc2C(=O)NC2Cc3ccccc3C2)CC1 [compound 44] is ____.
(A) 1570

(Q) Dear colleague, I am looking for the recorded Kd of the following compound: O=C(NC1Cc2ccccc2C1)c1nccnc1NC(=O)N1CCC(CO)CC1 [compound 11]
(A) 265

Fill in Kd for each of the 2 compounds listed.
1. CC(C)(C)OC(=O)NCCCCCC(=O)NCC1CCN(C(=O)Nc2nccnc2C(=O)NC2Cc3ccccc3C2)CC1 [compound 43]
2. CC(C)(C)OC(=O)NCC1CCN(C(=O)Nc2nccnc2C(=O)NC2Cc3ccccc3C2)CC1 [compound 9]

(A)
1: 611; 2: 2510
